test system: A431 (epidermoid carcinoma); experiment: Antiproliferative activity (CCK-8 cell viability), A431; type: cell-based; conditions: Homo sapiens, A-431, Compound concentration: 10 μM, 72 h, read-out: Antiproliferative activity in cancerous cells, A431 (inhibition of cell growth)
quantity_kind: inhibition at 10 µM

1) CC1=C(CC(=O)O)c2cc(Cl)ccc2/C1=C\c1ccc(CCc2ccccc2)cc1 | < 30%
2) CC1=C(CC(=O)O)c2c(F)cccc2/C1=C\c1cccc(COc2ccccc2)c1 | 30 to 50%
3) O=C(O)CC1=C(Cc2ccc(Oc3ccc(F)cc3)cc2)/C(=C/c2ccc(Oc3ccc(F)cc3)cc2)c2ccc(F)cc21 | ≥ 50%
4) COc1cc(Oc2ccc(F)cc2)ccc1/C=C1/C(C)=C(CC(=O)O)c2cc(F)ccc21 | ≥ 50%
